Hello, the source for this data is paper PMC9490236, in case you need it.

Experiment: Pharmacokinetics and oral bioavailability of D11.2 in male SD rats (IV, PO, SQ)
Type: in vivo
Conditions: male, Sprague Dawley, rat, plasma, subcutaneous, 1 mg/kg, SQ 1 mg/kg, individual rats R7, R8, R9; read-out: T1/2z (converted)
Where a SMILES comes first, the peptide text is derived from it. [ ]: non-standard residue; d: D form. NMeL = CN[C@@H](CC(C)C)C(=O)O; Sar = CNCC(=O)O
measure name: half-life (h)

compound | measure name | readout value
CC[C@@H](C)[C@H]1NC(=O)[C@@H]2CCCN2C(=O)[C@@H]([C@H](C)CC)NC(=O)CN(C)C(=O)[C@H](CC(C)C)NC(=O)[C@@H](Cc2ccccc2)NC(=O)[C@H](CC(C)C)N(C)C(=O)[C@H]2CCCN2C(=O)[C@@H](CC(C)C)NC(=O)[C@H](CC(C)C)NC(=O)[C@H]2CCCN2C1=O [Design D11.2] (cyclo(L[Sar][dI]P[dI][dP]L[dL][dP][NMeL][dF])) | half-life | 4.52
